- assay_comment: Metabolic stability in human liver microsomes assessed as half life at 1 uM measured up to 60 mins in presence of NADPH by LC-MS/MS analysis
- Assay type: ADME, Microsome
- reported_conditions: liver microsomes
In this section we review reported half-life at 1 µM values for a set of compounds.
measurement_label: half-life at 1 µM (min)

[[record]]
compound = "CCC(C)COc1cccc(OCc2ccc3ccccc3n2)c1 (configuration not stated)"
measurement_label = "half-life at 1 µM"
measurement = 22.3

[[record]]
compound = "OCc1cccc(OCc2ccc3ccccc3n2)c1"
measurement_label = "half-life at 1 µM"
measurement = 48


---

We begin with a simple list: items and their reported logD at 2 h.
- assay_comment: Lipophilicity, logD of the compound in octanol and phosphate buffer at pH 7.4 incubated for 2 hrs under shaking condition by LC-MS/MS analysis
- Type: physicochemical
measurement_label: logD at 2 h

[[record]]
compound = "O=C(O)c1cccc(OCc2ccc3ccccc3n2)c1"
measurement = 0.12

[[record]]
compound = "CCCCCC(O)c1cccc(OCc2ccc3ccccc3n2)c1 (centres undefined) [REV-5901]"
measurement = 3.1

[[record]]
compound = "OCc1cccc(OCc2ccc3ccccc3n2)c1"
measurement = 2.8

[[record]]
compound = "CCC(C)COc1cccc(OCc2ccc3ccccc3n2)c1 (centres undefined)"
measurement = 1.01


---

- assay_comment: Aqueous solubility of compound in pH 7.4 PBS buffer measured after 24 hrs by LC-MS/MS analysis
- Type: physicochemical
Below, each entry is listed with its recorded solubility at 24 h.
measurement_label: solubility at 24 h (µM)

[[record]]
molecule = "CCCCCC(O)c1cccc(OCc2ccc3ccccc3n2)c1 (centres undefined)"
measurement_label = "solubility at 24 h"
censoring_sign = "="
measurement = 39.3

[[record]]
molecule = "O=C(O)c1cccc(OCc2ccc3ccccc3n2)c1"
measurement_label = "solubility at 24 h"
censoring_sign = ">"
measurement = 200

[[record]]
molecule = "OCc1cccc(OCc2ccc3ccccc3n2)c1"
measurement_label = "solubility at 24 h"
censoring_sign = "="
measurement = 141

[[record]]
molecule = "CCC(C)COc1cccc(OCc2ccc3ccccc3n2)c1 (centres undefined)"
measurement_label = "solubility at 24 h"
censoring_sign = "="
measurement = 3.5

